Listed here are variants together with their documented protein stability index.
B1: TNXB (parent)
chain: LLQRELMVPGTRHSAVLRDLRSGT

# Variants of: B1
# experimental-details: protein stability index of a GFP-peptide fusion (GPS, HEK-293T) (PSI 1-6); higher = more stable;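 also: lentivirally expressed fusions sorted by FACS into six bins by GFP to DsRed ratio, PSI derived from sequencing read proportions per bin multiplied by bin number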
# condition-notes: c terminus: a fixed tail appended
Simply state the number, no unit and no words.

Sample answers from the record:
query-sequence | protein stability index
LLPRELMVPGTRHSAVLRDLRSGT [Q3P] | 2.88
LLQREIMVPGTRHSAVLRDLRSGT [L6I] | 2.19
LLQRELMVPGTRHSAKLRDLRSGT [V16K] | 2.48
LLQRELMVGGTRHSAVLRDLRSGT [P9G] | 2.3
LLQRELMVPGTRHSAVLRDLRSGP [T24P] | 2.54

Form field: reported protein stability index of LLQRELMVPGTRHHAVLRDLRSGT [S14H] 2.26

GET /values?readout=protein stability index&item= LLQRELMVPGTRHSAVLRDLRSGE [T24E] 1.83

GET /values?readout=protein stability index&item= LLQRELMVPVTRHSAVLRDLRSGT [G10V] 2.02

Which protein stability index value is on record for LLQRELMVPGTRHSASLRDLRSGT [V16S] ? 2.27

State the recorded protein stability index for this entry: LLQRELMYPGTRHSAVLRDLRSGT [V8Y] 2.32

Could you share which protein stability index value was measured for LLQRELGVPGTRHSAVLRDLRSGT [M7G] ? 3.15

Requested field: protein stability index. Item: LLQRELYVPGTRHSAVLRDLRSGT [M7Y] 3.15
